Target: T1, PUF4 RNA-binding domain (Saccharomyces cerevisiae, UniProt P25339 537-888)
T1 sequence: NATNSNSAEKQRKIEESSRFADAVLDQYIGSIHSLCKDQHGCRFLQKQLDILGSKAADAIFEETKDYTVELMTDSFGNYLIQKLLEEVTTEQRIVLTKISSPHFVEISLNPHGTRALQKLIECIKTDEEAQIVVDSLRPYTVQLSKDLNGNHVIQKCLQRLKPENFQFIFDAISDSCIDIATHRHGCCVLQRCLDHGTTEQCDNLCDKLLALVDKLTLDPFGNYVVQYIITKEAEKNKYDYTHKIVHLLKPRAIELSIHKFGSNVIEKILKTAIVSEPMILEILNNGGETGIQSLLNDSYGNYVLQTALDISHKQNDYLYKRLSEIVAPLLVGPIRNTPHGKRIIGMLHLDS
Experiment: Mg; RNA-MaP; 20 mM Na-HEPES pH 7.4, 30 mM KOAc, 0.75 mM MgCl2, 0.1% Tween-20, 5% glycerol, 0.1 mg/mL BSA, 2 mM DTT; 25 C; 0.0125-409.6 nM protein
Details: tags: N-His6-TEV cleaved; C-SNAP kept, Cy3B-labelled; label: tethered on chip by stalled RNA polymerase
Overview of recorded Kd for various binders
measured.property: Kd (nM)

binder	measured.property	endpoint.value
Ic_S2_P4E.1_K4.1_C4.1_H4.1_A4.1_[T7C]_F4.1_[T8G]_[A9C]_T4.1 (ssRNA) RNA: UUUGAUUAAUAUGAUAUCGUUCUUUCUUGUAUACGCUUCUUUCUCGAUAUCAUAUUAAUCUUU	Kd	55.7
Ic_S4_P5E.1_K5.1_C5.1_H5.1_A5.1_[T5A]_F5.1_[T8A]_[A10T]_T5.1 (ssRNA) RNA: UUUGACAACUGAUCGUUCUUUCUUGUAAUAAUUUUCUUUCUCGAUCAGUUGUCUUU	Kd	95.2
UCUCUUUGUAAGCUUCUCUU (ssRNA) [Ic_S1_P3E.1_K3.1_C3.1_H3.1_A3.1_[T5A]_[A6G]_F3.1_[T7C]_[A8T]_T3.1]	Kd	653
